These entries and their values trace back to the Immune Epitope Database (IEDB).

A collection of sequences and their measured pKd
# measurement-target: HLA-A*01:01
# test-details: IEDB peptide-MHC binding, purified MHC/direct/fluorescence; filed as Kd, often an IC50 or EC50 that approximates it; bounds were set here for any values at or beyond the usual limits of such assays
# study-conditions: source organism: Vibrio cholerae
pKd: −log10 of the molar value.

Query string: What value of pKd has been recorded for this entry: RVHGATVFK
Result string: ≤ 4.70

Query string: What value of pKd has been recorded for this entry: DSDPMDGCE
Result string: ≤ 4.70

Query string: What value of pKd has been recorded for this entry: ASLLRRWPK
Result string: ≤ 4.70

====

A collection of sequences and their measured pKd
# measurement-target: HLA-B*44:02
# test-details: IEDB peptide-MHC binding, purified MHC/direct/fluorescence; filed as Kd, often an IC50 or EC50 that approximates it; bounds were set here for any values at or beyond the usual limits of such assays
# study-conditions: source organism: Vibrio parahaemolyticus
pKd: −log10 of the molar value.

• ISDPAFKVF = ≤ 4.70

Query string: What value of pKd has been recorded for this entry: DQFSIPIRY
Result string: ≤ 4.70

====

# measurement-target: HLA-B*18:01
# test-details: IEDB peptide-MHC binding, purified MHC/direct/fluorescence; filed as Kd, often an IC50 or EC50 that approximates it; bounds were set here for any values at or beyond the usual limits of such assays
# study-conditions: source organism: Burkholderia mallei ATCC 23344
quantity-name: Kd

Query string: What value of Kd has been recorded for this entry: QHAWPLPPL
Result string: ≥ 20 µM

====

# measurement-target: HLA-B*40:01
# test-details: IEDB peptide-MHC binding, purified MHC/direct/fluorescence; filed as Kd, often an IC50 or EC50 that approximates it; bounds were set here for any values at or beyond the usual limits of such assays
# study-conditions: source organism: Yersinia pestis Antiqua
pKd: −log10 of the molar value.
quantity-name: pKd

Query string: What value of pKd has been recorded for this entry: FQLYSDLAH
Result string: ≤ 4.70

====

# measurement-target: HLA-B*46:01
# test-details: IEDB peptide-MHC binding, purified MHC/direct/fluorescence; filed as Kd, often an IC50 or EC50 that approximates it; bounds were set here for any values at or beyond the usual limits of such assays
# study-conditions: source organism: Vibrio vulnificus YJ016
quantity-name: Kd

Query string: What value of Kd has been recorded for this entry: SVFELSNFA
Result string: ≥ 20 µM

====

# measurement-target: HLA-B*40:01
# test-details: IEDB peptide-MHC binding, purified MHC/direct/fluorescence; filed as Kd, often an IC50 or EC50 that approximates it; bounds were set here for any values at or beyond the usual limits of such assays
# study-conditions: source organism: Giardia lamblia ATCC 50803
pKd: −log10 of the molar value.
quantity-name: pKd

Query string: What value of pKd has been recorded for this entry: DSPATLSAY
Result string: ≤ 4.70

====

# measurement-target: HLA-B*57:01
# test-details: IEDB peptide-MHC binding, purified MHC/competitive/fluorescence; filed as Kd, often an IC50 or EC50 that approximates it; bounds were set here for any values at or beyond the usual limits of such assays
# study-conditions: source organism: Vibrio cholerae V52
quantity-name: Kd

Query string: Recorded Kd for IGYRLGMGK with HLA-B*57:01, please?
Result string: ≥ 20 µM
